- Organism: Rattus norvegicus
- ASSAY_REMARKS: DrugMatrix - Regimen: Daily Repeat
- Assay type: toxicity, organism-based, Sprague-Dawley
- Design: regimen Daily Repeat, gender Male, age 6-8 weeks
- CONDITION_DESCRIPTION: in vivo, iv, 0 mg/kg, 72 h, tissue Blood, dose level Control, time 3 day, vehicle 100 % SALINE
PROPERTY_LABEL: PLATELET COUNT (x10E3/uL)
Hi! Could you send only the number? It should be in x10E3/uL, unit omitted.

Consider the following illustrative entries.
O=C(O)P(=O)(O)O [FOSCARNET] = 1307.17
COc1cccc2c1C(=O)c1c(O)c3c(c(O)c1C2=O)C[C@@](O)(C(C)=O)C[C@@H]3O[C@H]1C[C@H](N)[C@H](O)[C@H](C)O1 [DAUNORUBICIN] = 1202.83
N=C(N)c1ccc(OCCCCCOc2ccc(C(=N)N)cc2)cc1 [PENTAMIDINE] = 1186.33
O=c1[nH]c(=O)n([C@H]2C[C@H](O)[C@@H](CO)O2)cc1F [FLOXURIDINE] = 824

Need PLATELET COUNT of C[N+](C)(C)CCOC(=O)CCC(=O)OCC[N+](C)(C)C.[Cl-].[Cl-] [SUCCINYLCHOLINE CHLORIDE] , thanks.
1186.33

###

- Species: Rattus norvegicus
- ASSAY_REMARKS: DrugMatrix - Regimen: Daily Repeat
- Type: toxicity, organism-based, Sprague-Dawley
- Set-up: regimen Daily Repeat, gender Male, age 6-8 weeks
- CONDITION_DESCRIPTION: in vivo, ip, 0 mg/kg, […], tissue Blood, route intraperitoneal, dose level Control, time 14 day, vehicle 100 % SALINE
PROPERTY_LABEL: ABSOLUTE EOSINOPHIL

TRANSPLATIN = 140 cells/µL

The record that follows has no ABSOLUTE EOSINOPHIL shown yet.
Need ABSOLUTE EOSINOPHIL of COBALTOUS CHLORIDE , thanks.
140 cells/µL

###

URIC ACID: recorded values
- Species: Rattus norvegicus
- ASSAY_REMARKS: DrugMatrix - Regimen: Daily Repeat
- Assay type: toxicity, organism-based, Sprague-Dawley
- Parameters: regimen Daily Repeat, gender Male, age 6-8 weeks
- CONDITION_DESCRIPTION: in vivo, po, 0 mg/kg, 120 h, tissue Plasma, route oral GAVAGE, dose level Control, time 5 day, vehicle .5 % CMC

CCCCC1=NC2(CCCC2)C(=O)N1Cc1ccc(-c2ccccc2-c2nnn[nH]2)cc1 = 0.98 mg/dL
C[C@H]1[C@H](NC(=O)/C(=N\OC(C)(C)C(=O)O)c2csc(N)n2)C(=O)N1S(=O)(=O)O = 1.83 mg/dL

Need URIC ACID of COc1ccccc1[N+](=O)[O-] , thanks.
1 mg/dL

Need URIC ACID of NC(=O)N1c2ccccc2CC(=O)c2ccccc21 [OXCARBAZEPINE] , thanks.
1.67 mg/dL

Need URIC ACID of C[C@@H]1O[C@@H](O[C@H]2C[C@@H](O)[C@]3(CO)[C@H]4[C@H](O)C[C@]5(C)[C@@H](C6=CC(=O)OC6)CC[C@]5(O)[C@@H]4CC[C@]3(O)C2)[C@H](O)[C@H](O)[C@H]1O , thanks.
1.27 mg/dL

Need URIC ACID of C[C@@](Cc1ccc(O)c(O)c1)(NN)C(=O)O.O , thanks.
1.83 mg/dL

Need URIC ACID of CN(C)C(=O)C(CCN1CCC(O)(c2ccc(Cl)cc2)CC1)(c1ccccc1)c1ccccc1 [LOPERAMIDE] , thanks.
1.5 mg/dL

Need URIC ACID of COc1cc(OC)c(C(=O)CCCN2CCCC2)c(OC)c1 , thanks.
1.98 mg/dL

###

- Species on record: Rattus norvegicus
- ASSAY_REMARKS: DrugMatrix - Regimen: Daily Repeat
- Format: toxicity, organism-based, Sprague-Dawley
- Design: regimen Daily Repeat, gender Male, age 6-8 weeks
- CONDITION_DESCRIPTION: in vivo, po, 0 mg/kg, 120 h, tissue Plasma, route oral GAVAGE, dose level Control, time 5 day, vehicle 100 % WATER
CARBON DIOXIDE: recorded values
Hi! Could you send only the number? It should be in mmol/L, unit omitted.

Consider the following illustrative entries.
CNC1=Nc2ccc(Cl)cc2C(c2ccccc2)=[N+]([O-])C1 [CHLORDIAZEPOXIDE] = 27.17
C#Cc1cccc(Nc2ncnc3cc(OCCOC)c(OCCOC)cc23)c1 = 38.83

The record that follows has no CARBON DIOXIDE shown yet.
Need CARBON DIOXIDE of NC12CC3CC(CC(C3)C1)C2 , thanks.
33.83

###

TOTAL BILIRUBIN: recorded values
- Organism: Rattus norvegicus
- ASSAY_REMARKS: DrugMatrix - Regimen: Daily Repeat
- Format: toxicity, organism-based, Sprague-Dawley
- Design: regimen Daily Repeat, gender Male, age 6-8 weeks
- CONDITION_DESCRIPTION: in vivo, iv, 0 mg/kg, 120 h, tissue Plasma, dose level Control, time 5 day, vehicle 100 % SALINE
Hi! Could you send only the number? It should be in mg/dL, unit omitted.

Need TOTAL BILIRUBIN of C[N+](C)(C)CCOC(=O)CCC(=O)OCC[N+](C)(C)C.[Cl-].[Cl-] [SUCCINYLCHOLINE CHLORIDE] , thanks.
0.17

Need TOTAL BILIRUBIN of O=C(O)P(=O)(O)O , thanks.
0.18

Need TOTAL BILIRUBIN of N=C(N)c1ccc(OCCCCCOc2ccc(C(=N)N)cc2)cc1 , thanks.
0.17

Need TOTAL BILIRUBIN of COc1cccc2c1C(=O)c1c(O)c3c(c(O)c1C2=O)C[C@@](O)(C(C)=O)C[C@@H]3O[C@H]1C[C@H](N)[C@H](O)[C@H](C)O1 , thanks.
0.22

Need TOTAL BILIRUBIN of O=c1[nH]c(=O)n([C@H]2C[C@H](O)[C@@H](CO)O2)cc1F , thanks.
0.18

###

- Species: Rattus norvegicus
- ASSAY_REMARKS: DrugMatrix - Regimen: Daily Repeat
- Format: toxicity, organism-based, Sprague-Dawley
- Set-up: regimen Daily Repeat, gender Male, age 6-8 weeks
- CONDITION_DESCRIPTION: in vivo, iv, 0 mg/kg, 72 h, tissue Plasma, dose level Control, time 3 day, vehicle 100 % SALINE
PROPERTY_LABEL: CARBON DIOXIDE
Field: value (include unit after the number)

O=C(O)P(=O)(O)O [FOSCARNET] = 27.5 mmol/L
C[N+](C)(C)CCOC(=O)CCC(=O)OCC[N+](C)(C)C.[Cl-].[Cl-] [SUCCINYLCHOLINE CHLORIDE] = 24.33 mmol/L
O=c1[nH]c(=O)n([C@H]2C[C@H](O)[C@@H](CO)O2)cc1F [FLOXURIDINE] = 28 mmol/L
N=C(N)c1ccc(OCCCCCOc2ccc(C(=N)N)cc2)cc1 [PENTAMIDINE] = 24.33 mmol/L

The record that follows has no CARBON DIOXIDE shown yet.
Need CARBON DIOXIDE of COc1cccc2c1C(=O)c1c(O)c3c(c(O)c1C2=O)C[C@@](O)(C(C)=O)C[C@@H]3O[C@H]1C[C@H](N)[C@H](O)[C@H](C)O1 [DAUNORUBICIN] , thanks.
30.33 mmol/L

###

- Organism: Rattus norvegicus
- ASSAY_REMARKS: DrugMatrix - Regimen: Daily Repeat
- Type: toxicity, organism-based, Sprague-Dawley
- Design: regimen Daily Repeat, gender Male, age 6-8 weeks
- CONDITION_DESCRIPTION: in vivo, po, 0 mg/kg, 120 h, tissue Blood, route oral GAVAGE, dose level Control, time 5 day, vehicle .5 % CMC
LYMPHOCYTE: recorded values
Hi! Could you send only the number? It should be in %, unit omitted.

Consider the following illustrative entries.
C[C@]12CC[C@@H]3c4ccc(O)cc4CC[C@H]3[C@@H]1C[C@@H](O)[C@@H]2O = 90.83
CCn1cc(C(=O)O)c(=O)c2cc(F)c(N3CCNC(C)C3)c(F)c21 (stereo not drawn) = 88.6
C#C[C@]1(O)CC[C@H]2[C@@H]3CCC4=CC(=O)CC[C@]4(C)[C@H]3CC[C@@]21C = 82.57
C[C@@](Cc1ccc(O)c(O)c1)(NN)C(=O)O.O = 90.5
COc1cc(OC)c(C(=O)CCCN2CCCC2)c(OC)c1 = 92.83

Need LYMPHOCYTE of C[C@@H]1O[C@@H](O[C@H]2C[C@@H](O)[C@]3(CO)[C@H]4[C@H](O)C[C@]5(C)[C@@H](C6=CC(=O)OC6)CC[C@]5(O)[C@@H]4CC[C@]3(O)C2)[C@H](O)[C@H](O)[C@H]1O , thanks.
89

Need LYMPHOCYTE of COc1ccc2c(c1OC)C(=O)O[C@@H]2[C@H]1c2c(cc3c(c2OC)OCO3)CCN1C , thanks.
82.57

Need LYMPHOCYTE of CCOc1nc2cccc(C(=O)O)c2n1Cc1ccc(-c2ccccc2-c2nnn[nH]2)cc1 , thanks.
88

Need LYMPHOCYTE of NC(=O)N1c2ccccc2CC(=O)c2ccccc21 [OXCARBAZEPINE] , thanks.
93

Need LYMPHOCYTE of CCC1=C(C)CN(C(=O)NCCc2ccc(S(=O)(=O)NC(=O)N[C@H]3CC[C@H](C)CC3)cc2)C1=O [GLIMEPIRIDE] , thanks.
88.33

Need LYMPHOCYTE of CN(C)C(=O)C(CCN1CCC(O)(c2ccc(Cl)cc2)CC1)(c1ccccc1)c1ccccc1 [LOPERAMIDE] , thanks.
88.33

Need LYMPHOCYTE of CN1C(=O)CN=C(c2ccccc2)c2cc([N+](=O)[O-])ccc21 , thanks.
80.83

Need LYMPHOCYTE of CCCCC1=NC2(CCCC2)C(=O)N1Cc1ccc(-c2ccccc2-c2nnn[nH]2)cc1 , thanks.
72
